Target: CDK9 (Homo sapiens, UniProt P50750)
Construct: host or cells: HEK293-CDK9-Hibit
Sequence (P50750 whole entry): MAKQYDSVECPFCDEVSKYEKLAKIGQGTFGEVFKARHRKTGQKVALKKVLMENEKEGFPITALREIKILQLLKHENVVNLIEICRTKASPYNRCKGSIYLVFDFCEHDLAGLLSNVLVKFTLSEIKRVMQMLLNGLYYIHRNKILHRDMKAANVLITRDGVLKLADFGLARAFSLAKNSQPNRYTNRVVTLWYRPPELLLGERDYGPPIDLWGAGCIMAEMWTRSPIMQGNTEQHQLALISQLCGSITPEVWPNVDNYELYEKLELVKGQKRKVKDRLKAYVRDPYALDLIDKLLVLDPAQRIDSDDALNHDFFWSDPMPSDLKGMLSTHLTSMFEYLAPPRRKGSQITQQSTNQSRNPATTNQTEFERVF
Assay: HiBit Assay Protocol for CDK9 (HIBIT protein quantification, degradation)
Format: cell-based
Settings: 6 h, HEK293-CDK9-Hibit cells, compound treatment for 6 hours; read-out: CDK9 HIBIT Protein Quantification Maximum
Dmax values by entry
TEST_READOUT: Dmax (%)

compound="O=C1CCC(N2Cc3cc(C4CN(Cc5cccc(S(=O)(=O)N6CCC(Nc7ncc8c(n7)N([C@@H]7CCC[C@@H](O)C7)C(=O)C87CC7)CC6)c5)C4)ccc3C2=O)C(=O)N1 (some centres unmarked)" target_entity="CDK9 (Homo sapiens, UniProt P50750)" test_value=8
compound="CC1CCCC1N1C(=O)C2(CC2)c2cnc(NC3CCN(S(=O)(=O)N4CC5(CCN(C(=O)CCCCCCCc6ccc7c(c6)n(C)c(=O)n7C6CCC(=O)NC6=O)CC5)C4)CC3)nc21 (centres unmarked)" target_entity="CDK9 (Homo sapiens, UniProt P50750)" test_value=16
compound="CC1CCCC1N1C(=O)C2(CC2)c2cnc(NC3CCN(S(=O)(=O)N4CC5(CCCN(C6CCN(c7cccc8c7n(C)c(=O)n8C7CCC(=O)NC7=O)CC6)C5)C4)CC3)nc21 (centres unmarked)" target_entity="CDK9 (Homo sapiens, UniProt P50750)" test_value=11
compound="CC1CCCC1N1C(=O)C2(CC2)c2cnc(NC3CCN(S(=O)(=O)N4CC5C4CCN5C(=O)CCCCCc4ccc5c(c4)n(C)c(=O)n5C4CCC(=O)NC4=O)CC3)nc21 (centres unmarked)" target_entity="CDK9 (Homo sapiens, UniProt P50750)" test_value=23
compound="CC1CCCC1N1C(=O)C2(CC2)c2cnc(NC3CCN(S(=O)(=O)N4CC5C4CCN5C(=O)CCCc4cccc5c4n(C)c(=O)n5C4CCC(=O)NC4=O)CC3)nc21 (centres unmarked)" target_entity="CDK9 (Homo sapiens, UniProt P50750)" test_value=15

###

Target: CDK2 (Homo sapiens, UniProt P24941)
Construct: host or cells: HEK293-CDK2-Hibit
Assay: HiBit Assay Protocol for CDK2 (HIBIT protein quantification, degradation)
Type: cell-based
Details: HEK293-CDK2-Hibit cells, compound treatment for 6 hours
TEST_READOUT: CDK2 HIBIT Protein Quantification Maximum

molecule="CC1CCCC1N1C(=O)C2(CC2)c2cnc(NC3CCN(S(=O)(=O)N4CCC5(CCN(C(=O)CCCCCc6cccc7c6n(C)c(=O)n7C6CCC(=O)NC6=O)C5)C4)CC3)nc21 (centres unmarked) [Compound 42]" test_value=70%
molecule="Cn1c(=O)n(C2CCC(=O)NC2=O)c2cccc(-c3ccc(Oc4cccc(S(=O)(=O)N5CCC(Nc6ncc7c(n6)N([C@@H]6CCC[C@@H](O)C6)C(=O)C76CC6)CC5)c4)cc3)c21 (some centres unmarked) [Compound 150]" test_value=67%
molecule="CC1CCCC1N1C(=O)C2(CC2)c2cnc(NC3CCN(S(=O)(=O)N4CC5(CCCN(C(=O)CCc6ccc7c(c6)n(C)c(=O)n7C6CCC(=O)NC6=O)C5)C4)CC3)nc21 (centres unmarked) [Compound 57]" test_value=53%
molecule="CC1CCCC1N1C(=O)C2(CC2)c2cnc(NC3CCN(S(=O)(=O)N4CC5(CCN(C(=O)CCCCCCCCCc6cccc7c6n(C)c(=O)n7C6CCC(=O)NC6=O)CC5)C4)CC3)nc21 (centres unmarked) [Compound 51]" test_value=56%
molecule="CC(C)[C@@H]1CN([C@@H](C)c2cccc(S(=O)(=O)N3CC[C@H](Nc4ncc5c(n4)N([C@@H]4CCC[C@@H](O)C4)C(=O)C54CC4)[C@H](F)C3)c2)CCN1c1ccc2c(N3CCC(=O)NC3=O)nn(C)c2c1 [Compound 205]" test_value=88%
